# SYSTEM_NAME: hMOR-1 (Homo sapiens)
# Construct: purchased Amersham Biosciences; host or cells: stably transfected CHO cells (membrane preparation)
# Sequence (P35372 whole entry): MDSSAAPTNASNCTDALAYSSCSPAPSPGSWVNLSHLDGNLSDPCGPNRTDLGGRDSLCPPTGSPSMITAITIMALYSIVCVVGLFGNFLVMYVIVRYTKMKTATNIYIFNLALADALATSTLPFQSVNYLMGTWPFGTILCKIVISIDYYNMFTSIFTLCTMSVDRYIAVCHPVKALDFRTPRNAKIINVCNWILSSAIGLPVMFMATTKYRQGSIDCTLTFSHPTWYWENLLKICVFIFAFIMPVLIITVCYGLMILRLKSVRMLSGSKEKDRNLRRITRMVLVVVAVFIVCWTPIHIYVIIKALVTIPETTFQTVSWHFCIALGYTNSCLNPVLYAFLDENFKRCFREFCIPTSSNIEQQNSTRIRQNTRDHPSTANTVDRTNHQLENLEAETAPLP
# MEASUREMENT_DESCRIPTION: MOR GTP-γ-S assay (MOR activation)
# Type: biochemical
# COND: Table 16; compound 10 μM; percentage of DAMGO induced GTP-γ-35S specific binding; CHO membranes with hMOR-1
READOUT: % GTP-γ-S bound (%)

{"columns": ["MOLECULE", "READOUT", "SCALE_UNIT", "NUMBER"],
 "data": [
  ["NC(=O)[C@H](Cc1ccccc1)NC(=O)[C@H](Cc1ccccc1)NC(=O)[C@H]1CCCN1C(=O)[C@@H](N)Cc1ccc(O)cc1 [Compound 1, Endomorphin-2, reference compound]", "% GTP-γ-S bound", "%", 100],
  ["NC(=O)C(Cc1ccccc1)NC(=O)C(Cc1ccccc1)C(O)/C=C/C(O)CC(N)Cc1ccc(O)cc1 (single isomer, unassigned) [(R, R, S, S)-43]", "% GTP-γ-S bound", "%", 30],
  ["NC(=O)C(Cc1ccccc1)NC(=O)C(Cc1ccccc1)C(O)/C=C/C(O)CC(N)Cc1ccc(O)cc1 (single isomer, unassigned) [(S, R, R, S)-43]", "% GTP-γ-S bound", "%", 48],
  ["NC(=O)C(Cc1ccccc1)NC(=O)C(Cc1ccccc1)C(O)/C=C/C(O)CC(N)Cc1ccc(O)cc1 (single isomer, unassigned) [(S, S, R, S)-43]", "% GTP-γ-S bound", "%", 25],
  ["NC(=O)C(Cc1ccccc1)NC(=O)C(Cc1ccccc1)C(O)/C=C/C(O)CC(N)Cc1ccc(O)cc1 (single isomer, unassigned) [(S, R, S, R)-43]", "% GTP-γ-S bound", "%", 37],
  ["NC(=O)C(Cc1ccccc1)NC(=O)C(Cc1ccccc1)C(O)/C=C/C(O)CC(N)Cc1ccc(O)cc1 (single isomer, unassigned) [(R, S, R, R)-43]", "% GTP-γ-S bound", "%", 68],
  ["NC(=O)C(Cc1ccccc1)NC(=O)C(Cc1ccccc1)C(O)/C=C/C(O)CC(N)Cc1ccc(O)cc1 (single isomer, unassigned) [(S, R, S, S)-43]", "% GTP-γ-S bound", "%", 57]
]}

---

# SYSTEM_NAME: hMOR-1 (Homo sapiens)
# Construct: purchased Amersham Biosciences; host or cells: stably transfected CHO cells (membrane preparation)
# MEASUREMENT_DESCRIPTION: MOR GTP-γ-S assay (MOR activation)
# Format: biochemical
# COND: Table 15; compound 10 mM (footnote); percentage of DAMGO induced GTP-g-35S specific binding; CHO membranes with hMOR-1

{"columns": ["COMPOUND", "% GTP-γ-35S bound (%)"],
 "data": [
  ["Cc1cc(O)cc(C)c1CC(N)C(O)C/C=C/C(O)C(Cc1ccccc1)C(=O)NCCc1ccccc1 (single isomer, unassigned) [(S,S,R,S)-26]", 52],
  ["Cc1cc(O)cc(C)c1CC(N)C(O)C/C=C/C(O)C(Cc1ccccc1)C(=O)NCCc1ccccc1 (single isomer, unassigned) [(S,S,S,R)-26]", 40],
  ["Cc1cc(O)cc(C)c1CC(N)C(O)C/C=C/C(O)C(Cc1ccccc1)C(=O)NC(Cc1ccccc1)C(N)=O (single isomer, unassigned) [(S,R,R,R)-25]", 43],
  ["Cc1cc(O)cc(C)c1CC(N)C(O)C/C=C/C(O)C(Cc1ccccc1)C(=O)NCCc1ccccc1 (single isomer, unassigned) [(S,R,R,R)-26]", 27],
  ["Cc1cc(O)cc(C)c1CC(N)C(O)C/C=C/C(O)C(Cc1ccccc1)C(=O)NC(Cc1ccccc1)C(N)=O (single isomer, unassigned) [(S,S,R,R)-25]", 75],
  ["Cc1cc(O)cc(C)c1CC(N)C(O)C/C=C/C(O)C(Cc1ccccc1)C(=O)NC(Cc1ccccc1)C(N)=O (single isomer, unassigned) [(S,S,S,R)-25]", 35]
]}
